Data origin, for the record: paper PMC10283505

test system: A549; test: Cytotoxicity assay (Alamar Blue, 72 h); assay type: cell-based; conditions: Homo sapiens, A549 (Lung)
Outcome measure: IC50
A bare number is not enough; add the unit after it.

{"Compound": "COc1ccc2[nH]c(-c3cccc(F)c3)cc(=O)c2c1OP(=O)(O)O [CVM-1118]", "Assay target": "A549", "IC50": "26 nM"}

Field: next compound
[in] Look up IC50 for this compound: COc1ccc2[nH]c(-c3cccc(F)c3)cc(=O)c2c1O [CVM-1125]
[out] 29 nM

----------
target: Nucleolin (Homo sapiens); assay: Surface plasmon resonance (Biacore); format: binding; settings: SPR, read-out: KD (kd/ka)
Sequence (P19338 whole entry): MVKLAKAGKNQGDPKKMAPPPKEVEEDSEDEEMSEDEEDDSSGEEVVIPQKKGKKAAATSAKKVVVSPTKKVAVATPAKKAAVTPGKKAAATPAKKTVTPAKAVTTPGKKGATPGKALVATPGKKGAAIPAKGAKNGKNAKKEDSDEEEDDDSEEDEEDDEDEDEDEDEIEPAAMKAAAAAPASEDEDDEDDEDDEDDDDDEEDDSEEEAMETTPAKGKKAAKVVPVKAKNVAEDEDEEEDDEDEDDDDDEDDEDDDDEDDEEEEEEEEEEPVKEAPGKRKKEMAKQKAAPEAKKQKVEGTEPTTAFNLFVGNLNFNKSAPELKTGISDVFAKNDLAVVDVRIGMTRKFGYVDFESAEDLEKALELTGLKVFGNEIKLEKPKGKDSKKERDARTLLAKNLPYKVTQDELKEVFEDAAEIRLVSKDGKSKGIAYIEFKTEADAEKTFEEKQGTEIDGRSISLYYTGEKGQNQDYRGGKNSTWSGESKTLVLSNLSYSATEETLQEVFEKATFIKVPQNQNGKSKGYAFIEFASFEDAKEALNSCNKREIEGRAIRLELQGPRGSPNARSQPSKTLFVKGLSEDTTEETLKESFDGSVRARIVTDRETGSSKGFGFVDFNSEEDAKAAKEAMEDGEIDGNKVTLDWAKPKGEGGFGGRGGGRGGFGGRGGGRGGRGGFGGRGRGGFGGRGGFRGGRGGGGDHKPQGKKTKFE
Outcome measure: pKd
Lab note — pKd values are minus log10 of concentrations in M.

[in] Look up pKd for this compound: COc1ccc2[nH]c(-c3cccc(F)c3)cc(=O)c2c1O
[out] 6.04

----------
test: Cell viability at VM-inhibiting concentration; type: cell-based; conditions: human, human melanoma cells; 10 nM; read-out: percentage of viable cells
Outcome measure: viability at 0.01 µM

[in] Look up viability at 0.01 µM for this molecule: COc1ccc2[nH]c(-c3cccc(F)c3)cc(=O)c2c1OP(=O)(O)O
[out] > 90%

----------
Quick list: Cmax per entry.
Test: Pharmacokinetic study of oral CVM-1118 in mouse (plasma, LC-MS/MS)
Assay type: in vivo, male CD-1 mice
Conditions: mouse; analyte in plasma after single oral CVM-1118 30 mg/kg in 9% NaHCO3, fasted male CD-1 mice
Method: Supplementary Results on Pharmacokinetic study of oral CVM-1118 in Mouse Method: The pharmacokinetics of CVM-1118 and CVM-1125 were investigated in male CD-1 mice following a single oral administration of CVM-1118 at 30 mg/kg in 9% NaHCO3 in fasted mice. At pre-determined time points, plasma samples were collected and stored at -20°C prior to measurement of CVM-1118 and CVM-1125 concentrations using an LC-MS/MS method. […]
A bare number is not enough; add the unit after it.

{"Smiles record": "COc1ccc2[nH]c(-c3cccc(F)c3)cc(=O)c2c1O", "Cmax": "349 ng/mL"}

[in] Look up Cmax for this compound: COc1ccc2[nH]c(-c3cccc(F)c3)cc(=O)c2c1OP(=O)(O)O
[out] 21 ng/mL
